Values were extracted from PubChem BioAssay AID1159580.

# protocol description: chemical genetic growth profiling, strain panel (AID 1159580);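 note: tested at 20 µM; growth read once vehicle control cultures reached saturation at 30 °C; 1 = growth at the plate median or of vehicle wells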
# measurement context: S. cerevisiae deletion strains, growth OD, locus YML016C, strain PPZ1, stronger effect = lower value
In all, about 5,500 compounds went through this assay and about 2,000 (36%) were called active. About 18% were inconclusive and are not listed. Some of the results follow.
I'd appreciate it if you could supply normalized growth values for the items below.
Give the figure by itself; no unit, no explanation.

Consider COc1cc([C@@H]2c3cc4c(cc3C(O[C@@H]3O[C@@H]5CO[C@@H](c6cccs6)OC5[C@H](O)[C@H]3O)C3COC(=O)[C@@H]32)OCO4)cc(OC)c1O (some centres not stated) . Its measured normalized growth is 1

Consider O=c1c2ccccc2[se]n1-c1ccccc1 . Its measured normalized growth is 0.0497

Consider O=c1[nH]c2cc(Cl)c(Cl)cc2[nH]c1=O . Its measured normalized growth is 1.01

Consider O=C(O)c1nc2cc(Cl)c(Cl)cc2[nH]c1=O . Its measured normalized growth is 0.995

Consider Cc1cc2cc3c(C)cc(=O)oc3c(C)c2o1 . Its measured normalized growth is 0.951

Consider C=C1C(N)CC2CC1C2(C)C (configuration not stated) . Its measured normalized growth is 1.01

Consider C[C@@H]1CC[C@@]2(OC1)OC1C(O)C3C4CC[C@H]5C[C@H](O[C@@H]6O[C@H](CO)[C@H](O[C@@H]7O[C@H](CO)[C@@H](O)[C@H](O[C@@H]8OC[C@@H](O)[C@H](O)[C@H]8O)[C@H]7O[C@@H]7O[C@H](CO)[C@H](O)[C@H](O[C@@H]8O[C@H](CO)[C@@H](O)[C@H](O)[C@H]8O)[C@H]7O)[C@H](O)[C@H]6O)[C@H](O)C[C@]5(C)C4CC[C@]3(C)C1[C@@H]2C (some centres not stated) . Its measured normalized growth is 0.0492

* * *

# protocol description: chemical genetic growth profiling, strain panel (AID 1159580);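 note: tested at 20 µM; growth read once vehicle control cultures reached saturation at 30 °C; 1 = growth at the plate median or of vehicle wells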
# measurement context: S. cerevisiae deletion strains, growth OD, locus YAL013W, strain DEP1
The whole screen tested about 5,500 compounds, of which about 2,000 (36%) were called active. Another 18% or so got no clear call; they are omitted. No stated cut-off is given here; in the data, active means normalized growth mostly below about 0.91 (no sharp cut-off); inconclusive means no clear call, values can overlap the other calls; inactive means mostly above about 0.92. The list shows a part of the results.
Your response should consist of one outcome taken from active, inactive

IN: Any idea what this test logged for COC(=O)C1=C(C)NC(C)=C(C(=O)OCCN(C)Cc2ccccc2)C1c1cccc([N+](=O)[O-])c1 (stereo not given) ?
OUT: inactive

IN: Any idea what this test logged for CC(=O)N(O)CCCCCNC(=O)CCC(=O)N(O)CCCCCNC(=O)CCC(=O)N(O)CCCCCN ?
OUT: inactive

IN: Any idea what this test logged for CCOC(=O)C1C(C=C(C)C)C1(C)C (stereo not given) ?
OUT: inactive

IN: Any idea what this test logged for COc1ccc(-c2cc(=O)c3ccccc3o2)cc1OC ?
OUT: inactive

IN: Any idea what this test logged for CC1(C)CC(=O)c2c(S(C)(=O)=O)sc(Br)c2C1 ?
OUT: inactive

IN: Any idea what this test logged for CC(C)(C)OC(=O)NC1CCN(C(=O)c2ccc(Cl)cc2Cl)CC1 ?
OUT: inactive

IN: Any idea what this test logged for CN1CCN(C2Cc3ccccc3Sc3ccc(Cl)cc32)CC1 (stereo not given) ?
OUT: active

IN: Any idea what this test logged for COc1ccc(-c2cc(=O)c3ccccc3o2)cc1 ?
OUT: active

IN: Any idea what this test logged for CSc1ccc(C(=O)O)s1 ?
OUT: inactive

IN: Any idea what this test logged for COCCOC(=O)C1=C(C)NC(C)=C(C(=O)OC(C)C)C1c1cccc([N+](=O)[O-])c1 (stereo not given) ?
OUT: inactive

* * *

# protocol description: chemical genetic growth profiling, strain panel (AID 1159580);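 note: tested at 20 µM; growth read once vehicle control cultures reached saturation at 30 °C; 1 = growth at the plate median or of vehicle wells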
# measurement context: S. cerevisiae deletion strains, growth OD, locus YOR136W, strain idh2
The campaign covered roughly 5,500 compounds. About 2,000 (36%) were called active. Not shown: some 18% with an inconclusive outcome. Rule as the data show it: active = normalized growth mostly below about 0.91 (no sharp cut-off); inconclusive = no clear call, values can overlap the other calls; inactive = mostly above about 0.92. This is one part of the list.
Your response should consist of one outcome taken from 1 (yes) for active, 0 (no) for inactive

IN: Any idea what this test logged for CC(=O)OC1CC2C(C)(C)CCCC2(C)C2CCC3(C)C(c4ccoc4)OC(=O)C4OC43C12C (configuration not stated) ?
OUT: 0 (no)

IN: Any idea what this test logged for COc1cccc(-c2cc(=O)c3ccc(OC)cc3o2)c1 ?
OUT: 1 (yes)

IN: Any idea what this test logged for CCCCC1C(=O)N(c2ccccc2)N(c2ccccc2)C1=O ?
OUT: 0 (no)

IN: Any idea what this test logged for CCCCCCc1ccc(O)cc1O ?
OUT: 0 (no)

IN: Any idea what this test logged for CC(=O)O[C@@H]1CC2C(C)(C)CCC(=O)[C@]2(C)C2CC[C@@]3(C)[C@H](c4ccoc4)OC(=O)C4OC43[C@@]21C (some centres not stated) ?
OUT: 0 (no)

IN: Any idea what this test logged for OC1C(O)C(O)C(O)C(O)C1O (configuration not stated) ?
OUT: 0 (no)

IN: Any idea what this test logged for COc1ccc2c(=O)cc(-c3ccccc3OC)oc2c1 ?
OUT: 0 (no)

IN: Any idea what this test logged for CC(=O)O[C@H]1C[C@@]2(C)[C@H](c3ccoc3)OC(=O)[C@H]3O[C@]32[C@@]2(C)C1[C@]1(C)C(C[C@H]2OC(C)=O)C(C)(C)[C@H](OC(C)=O)C[C@@H]1OC(C)=O (some centres not stated) ?
OUT: 0 (no)

IN: Any idea what this test logged for CCCN1C[C@H](CSC)C[C@@H]2c3cccc4[nH]cc(c34)C[C@H]21 ?
OUT: 0 (no)

IN: Any idea what this test logged for Clc1ccc(Cl)cc1 ?
OUT: 0 (no)

IN: Any idea what this test logged for Nc1nc(N)c2nc(-c3ccccc3)c(N)nc2n1 ?
OUT: 0 (no)

IN: Any idea what this test logged for N[C@@H]1CONC1=O ?
OUT: 0 (no)

IN: Any idea what this test logged for CN(C)CCC=C1c2ccccc2CCc2ccccc21 ?
OUT: 0 (no)

IN: Any idea what this test logged for CC(C)=CCc1c2c(c(O)c3c(=O)c(O)c(-c4ccccc4)oc13)C=CC(C)(C)O2 ?
OUT: 1 (yes)

IN: Any idea what this test logged for NC(=O)CC[C@@H](N)C(=O)O ?
OUT: 0 (no)

IN: Any idea what this test logged for CC[N+]1(C)CCCC(OC(=O)C(O)(c2ccccc2)c2ccccc2)C1 (configuration not stated) ?
OUT: 0 (no)

IN: Any idea what this test logged for CC(=O)O[C@@H]1CC2C(C)(C)[C@H](O)C[C@H](O)[C@]2(C)C2CC[C@@]3(C)[C@H](c4ccoc4)OC(=O)[C@H]4O[C@]43[C@@]21C (some centres not stated) ?
OUT: 0 (no)

IN: Any idea what this test logged for CC(=O)Oc1c(-c2ccccc2)oc2c(CC=C(C)C)c3c(c(OC(C)=O)c2c1=O)C=CC(C)(C)O3 ?
OUT: 1 (yes)

IN: Any idea what this test logged for NCCc1ccc(O)cc1 ?
OUT: 0 (no)

IN: Any idea what this test logged for COc1ccc(-c2cc(=O)c3ccccc3o2)cc1OC ?
OUT: 0 (no)

IN: Any idea what this test logged for NCCc1cccc(O)c1 ?
OUT: 0 (no)

IN: Any idea what this test logged for COc1ccc(-c2cc(=O)c3ccccc3o2)cc1 ?
OUT: 1 (yes)

* * *

I'd appreciate it if you could supply normalized growth values for the items below.
# protocol description: chemical genetic growth profiling, strain panel (AID 1159580);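 note: tested at 20 µM; growth read once vehicle control cultures reached saturation at 30 °C; 1 = growth at the plate median or of vehicle wells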
# measurement context: S. cerevisiae deletion strains, growth OD, locus YJL129C, strain trk1, stronger effect = lower value
About 2,000 (36%) of roughly 5,500 compounds were called active. Another 18% or so got no clear call; they are omitted. The list shows a part of the results.

Consider O=C(O)c1cn(-c2ccc(F)cc2)c2cc(N3CCNCC3)c(F)cc2c1=O . Its measured normalized growth is 0.992 (inactive)

Consider CC(=O)N(O)CCCCCNC(=O)CCC(=O)N(O)CCCCCNC(=O)CCC(=O)N(O)CCCCCN . Its measured normalized growth is 1.01 (inactive)

Consider O=C(O)/C=C(\CC(=O)O)C(=O)O . Its measured normalized growth is 0.996 (inactive)

Consider O=C(O)c1cc(=O)c2ccccc2o1 . Its measured normalized growth is 0.95 (inactive)

Consider O=C1CN2Cc3c(ccc(Cl)c3Cl)N=C2N1 . Its measured normalized growth is 0.978 (inactive)

Consider CC(C)c1ccc2c(c1O)CC[C@H]1C3=C(CC[C@]21C)C(=O)OC3 . Its measured normalized growth is 0.856 (active)

Consider COc1c(O)cccc1O . Its measured normalized growth is 1.06 (inactive)

Consider COc1c2c(cc3c1OCO3)CC[N+](C)=C2 . Its measured normalized growth is 1.01 (inactive)

Consider NCCc1ccc(O)cc1 . Its measured normalized growth is 0.967 (inactive)

Consider CN1CCOC(c2ccccc2)c2ccccc2C1 (configuration not stated) . Its measured normalized growth is 0.968 (inactive)

Consider CC(=O)CC(c1ccccc1)c1c(O)c2ccccc2oc1=O (configuration not stated) . Its measured normalized growth is 1.02 (inactive)

Consider CCCCCCc1ccc(O)cc1O . Its measured normalized growth is 0.85 (active)

Consider NS(=O)(=O)c1cc2c(cc1C(F)(F)F)NCNS2(=O)=O . Its measured normalized growth is 1.01 (inactive)

Consider COc1cc([C@@H]2c3cc4c(cc3C(O[C@@H]3O[C@@H]5CO[C@@H](c6cccs6)OC5[C@H](O)[C@H]3O)C3COC(=O)[C@@H]32)OCO4)cc(OC)c1O (some centres not stated) . Its measured normalized growth is 0.993 (inactive)

Consider COc1ccc(-c2cc(=O)c3c(OC)c(OC)c(OC)c(OC)c3o2)cc1 . Its measured normalized growth is 0.774 (active)

Consider CC(=O)Oc1ccc(-c2cc(=O)c3c(OC(C)=O)cc(OC(C)=O)cc3o2)cc1 . Its measured normalized growth is 0.95 (inactive)

Consider COc1cc([C@@H]2c3cc4c(cc3[C@H](OC(C)=O)[C@H]3COC(=O)[C@H]23)OCO4)cc(OC)c1OC . Its measured normalized growth is 1 (inactive)

Consider CC(C)(Oc1ccc(Cl)cc1)C(=O)O . Its measured normalized growth is 1.03 (inactive)

Consider C[n+]1cc2c3c(ccc2c2ccc4cc5c(cc4c21)OCO5)OCO3 . Its measured normalized growth is 0.309 (active)

Consider COc1ccc(C(=O)/C=C/c2ccccc2)cc1 . Its measured normalized growth is 0.859 (active)

Consider C=CCc1ccccc1OCC(O)CNC(C)C (configuration not stated) . Its measured normalized growth is 0.998 (inactive)

Consider COc1ccc(-c2cc(=O)c3c(O)c(OC)c(OC)c(OC)c3o2)cc1 . Its measured normalized growth is 0.979 (inactive)

Consider O=C1CCc2cc(OCCCCc3nnnn3C3CCCCC3)ccc2N1 . Its measured normalized growth is 0.973 (inactive)

Consider CCCN1C[C@H](CSC)C[C@@H]2c3cccc4[nH]cc(c34)C[C@H]21 . Its measured normalized growth is 1.03 (inactive)

Consider Cn1c(=O)c2[nH]c(C3CCCC3)nc2n(C)c1=O . Its measured normalized growth is 0.974 (inactive)

Consider COc1cc2c(cc1OC)-c1cc3ccc(OC)c(OC)c3c[n+]1CC2 . Its measured normalized growth is 0.96 (inactive)

Consider COc1cc2c3cc1Oc1cc(ccc1O)C[C@@H]1c4c(cc(OC)c(O)c4Oc4ccc(cc4)C[C@@H]3N(C)CC2)CC[N+]1(C)C . Its measured normalized growth is 1 (inactive)

Consider S=c1ccss1 . Its measured normalized growth is 0.927 (inactive)

Consider CC(C)=CCc1c2c(c(O)c3c(=O)c(O)c(-c4ccccc4)oc13)C=CC(C)(C)O2 . Its measured normalized growth is 0.894 (inactive)

Consider CC(=O)Nc1ccc(OC(=O)c2ccccc2O)cc1 . Its measured normalized growth is 0.974 (inactive)

Consider CC1=NCCc2c1[nH]c1cc(O)ccc21 . Its measured normalized growth is 1.01 (inactive)

Consider NCCc1ccc(O)c(O)c1 . Its measured normalized growth is 0.998 (inactive)

Consider [N-]=[N+]=CC(=O)OCC(N)C(=O)O (configuration not stated) . Its measured normalized growth is 1.01 (inactive)

Consider COc1ccc(-c2cc(=O)c3cc(OC)ccc3o2)cc1 . Its measured normalized growth is 0.937 (inactive)

Consider COc1ccc(-c2cc(=O)c3ccccc3o2)cc1OC . Its measured normalized growth is 0.901 (inactive)

Consider Nc1ccc(C(=O)Oc2ccccc2)c(O)c1 . Its measured normalized growth is 0.892 (inactive)

Consider CC1=CCc2c(cc3oc(C)cc(=O)c3c2O)OC1 . Its measured normalized growth is 0.912 (inactive)

Consider COc1ccc(-c2cc(=O)c3c(OC(C)=O)cc(OC(C)=O)cc3o2)cc1 . Its measured normalized growth is 0.937 (inactive)

Consider N[C@H](CO)Cc1ccccc1 . Its measured normalized growth is 1.03 (inactive)

Consider O=c1c2ccccc2[se]n1-c1ccccc1 . Its measured normalized growth is 0.769 (active)

Consider CC1(C)O[C@@H]2CC3C4C[C@H](F)C5=CC(=O)C=CC5(C)C4C(O)CC3(C)[C@]2(C(=O)CO)O1 (some centres not stated) . Its measured normalized growth is 0.953 (inactive)

Consider CCCCC1C(=O)N(c2ccccc2)N(c2ccccc2)C1=O . Its measured normalized growth is 0.999 (inactive)

Consider COCCOC(=O)C1=C(C)NC(C)=C(C(=O)OC(C)C)C1c1cccc([N+](=O)[O-])c1 (configuration not stated) . Its measured normalized growth is 0.987 (inactive)

Consider CC(=O)Nc1cccc(O)c1 . Its measured normalized growth is 1.04 (inactive)

Consider COc1ccc2cc3[n+](cc2c1OC)CCc1cc2c(cc1-3)OCO2 . Its measured normalized growth is 0.993 (inactive)

Consider C=C1C2CC[C@@]3(C)[C@H](c4ccoc4)OC(=O)C[C@]13O[C@H]1CC(=O)C(C)(C)[C@H](C(O)C(=O)OC)[C@@]21C (some centres not stated) . Its measured normalized growth is 0.976 (inactive)

Consider CCCCCCCCCc1ccc(O)cc1 . Its measured normalized growth is 0.0774 (active)
